System: DU-145 prostate
Assay: NCI tumour cell line growth inhibition, 48 h
We begin with a simple list: items and their reported TGI.

Worked cases, TGI given:
compound="COc1ccc(C2c3cc4c(cc3OC(N3CCOCC3)C2C)OCO4)cc1OC (configuration not stated)" value_measured="> 79.7 µM"
compound=Cc1cc(C)c2c(-c3ccccc3)cc(=O)[nH]c2c1 value_measured="> 100 µM"
compound=Nc1nc(N)c2cc(S(=O)(=O)c3cccc(C(F)(F)F)c3)ccc2n1 value_measured="> 100 µM"
compound="C/C(=C\\CCC1=CC(=O)OC1)CCC1C2C(=O)CC(C)[C@@]3(C)CC[C@]1(C)[C@@]23C (some centres not stated)" value_measured="> 10 µM"

Report value: TGI, system: DU-145 prostate, compound: O=C(O)C1CCCN1 (configuration not stated)
> 100 µM

Report TGI from DU-145 prostate testing of `COP(=O)(OC)[C@@](O)(c1ccccc1)[C@@H](O)[C@H](O)c1ccccc1`
> 100 µM

Look up and report TGI, with DU-145 prostate as system, for `CCN(CC)c1c(-c2c(OC(C)C)c(=O)c2=O)c(=O)n2ccsc2c1OC(C)=O`
> 100 µM

---

Test system: MCF7 breast
Assay: NCI tumour cell line growth inhibition, 48 h
Each item that follows carries a reported TGI.

Look over these answered cases.
compound=C#CCOC(=O)C=[N+]=[N-] value_measured="> 10 µM"
compound="CC1(N2CCOCC2)CC2C(=[N+]1[O-])CCC/C2=N/O (stereo unspecified)" value_measured="> 100 µM"
compound=CN(C)c1ccc(-c2c(C#N)c(-c3ccccc3)n(NS(=O)(=O)c3ccccc3)c(=O)c2C#N)cc1 value_measured="> 100 µM"
compound=CCCCOC(=O)Nc1ccc(S(=O)(=O)Nc2c(Cl)cccc2Cl)cc1 value_measured="92.4 µM"
compound=Cn1c2ccccc2n2c(=O)c(-c3ccc(Cl)cc3)nnc12 value_measured="> 100 µM"

Entry CCN1CC2=C(OC(N)=C(C#N)C2c2ccc(Cl)cc2)/C(=C/c2ccc(Cl)cc2)C1 (stereo unspecified) needs its TGI filled in; supply it.
> 100 µM

For the compound `C[C@]12C(=O)OC[C@H](c3ccccc3)N1C(=O)N(Cc1ccccc1)[C@@H]2CO` , give its measured TGI value.
> 100 µM

// fetch TGI given entry COc1ccc(C2c3cc4c(cc3OC(N3CCOCC3)C2C)OCO4)cc1OC (stereo unspecified)
> 96 µM

Quote TGI reported for `c1ccc2[nH]c(-c3ccc(Nc4nc(N5CCCC5)nc5[nH]ncc45)cc3)nc2c1` please.
0.619 µM

Indicate the recorded TGI value for this compound: `N#C/C=C(/NC(=O)Nc1ccccc1)N1CCCC1`
> 55 µM

Identify measured TGI corresponding to `O=c1cc(-c2cccc(Cl)c2)[nH]c2cc3c(cc12)OCO3`
> 100 µM

Consider the compound `CCOC(=O)CCCN` . State its measured TGI.
> 100 µM

Give the measured TGI for `COc1ccc(-c2nc(-c3nc4cc(Cl)c(Cl)cc4[nH]3)c3ccccn23)cc1`
> 100 µM

// fetch TGI given entry `COc1ccc(Nc2nc3ccccc3nc2-c2cccs2)cc1OC`
> 10 µM

Find the measured TGI of `COc1cc(OC)c(-n2[nH]c(=O)n(C)c2=O)c(OC)c1` and report it.
> 100 µM

Give reported TGI value for `c1ccc(C/C(=N\Nc2nc3ccccc3[nH]2)c2ccccn2)cc1`
0.607 µM

Give me measured TGI, please, for this compound: `COCCn1c(Nc2ccc(C(=O)NO)cc2)nc2ccccc21`
> 100 µM

Indicate its recorded TGI; the compound in question is `Cc1cc2c3c(c1)S(=O)(=O)c1cc(Cl)ccc1N3CCC2`
> 100 µM

Input `CCO/C(O)=c1/s/c(=C2/SC(=S)N(c3ccc(C)cc3)C2=O)n(-c2ccccc2)c1=N` , output reported TGI.
> 100 µM

Quote TGI reported for `CCOc1cc(/C=C/C(=O)CC(=O)/C=C/c2ccc(OC(=O)CNc3nc4ccc(OC)cc4s3)c(OCC)c2)ccc1OC(=O)CNc1nc2ccc(OC)cc2s1` please.
10.8 µM

Give me measured TGI, please, for this compound: `CN1CCN(c2cc(F)c(NC3=C(Cl)C(=O)c4ncccc4C3=O)c(F)c2)CC1`
2.87 µM

---

Tested on: SR leukemia
Experiment: NCI tumour cell line growth inhibition, 48 h; in the data active = GI50 below about 0.43 µM; inactive = the rest
Outcome (select one): t = active, f = inactive

molecule=CCCN1CCC(Oc2cc(Nc3nc(Nc4cccc(F)c4C(N)=O)c4cc[nH]c4n3)c(OC)cc2Cl)CC1 target="SR leukemia" class_label=f
molecule=CN1CCC2(CC1)C(=O)Nc1cc(NC(=O)c3ccc4c(c3)C[C@@H]3C(C)(C)[C@H](O)[C@H](F)C[C@@]3(C)O4)ccc12 target="SR leukemia" class_label=t
molecule="Cc1cc[c]([Sb]2[O]C(CO)C(C(O)C(O)C(=O)O)[O]2)cc1 (centres undefined)" target="SR leukemia" class_label=f

Please find the next molecule below.
Hi, do you know how `N#Cc1cnc2ccc(NCc3cnc[nH]3)cc2c1Nc1ccc(F)c(Cl)c1` came out in this test?
f

---

System: MALME-3M melanoma
Test: NCI tumour cell line growth inhibition, 48 h; in the data active means GI50 below about 0.43 µM; inactive means the rest
Give your call using only these classes: active, inactive

compound=O=C(Nc1ccccc1/C=C/c1n[nH]c2ccccc12)c1ccccc1 class_label=inactive

Any idea what this test logged for Clc1ccc2c(NC3CCC(NC4CCCCC4)CC3)ccnc2c1 (centres undefined) ?
inactive

So what was the verdict on `CN(C)CCN1C(=O)c2cccc3cc(N)cc(c23)C1=O` in this test?
inactive

---

Tested on: K-562 leukemia
Assay: NCI tumour cell line growth inhibition, 48 h
Where a SMILES comes first, the peptide text is derived from it. [ ]: non-standard residue; d: D form. ξ: configuration not given here. Pentanoyl(2-O,4-OH,5-Cl) = O=C(O)C(O)CC(O)CCl; Ile(3ξ) = CCC(C)[C@H](N)C(=O)O; NMeV = CN[C@H](C(=O)O)C(C)C; NMeA = CN[C@@H](C)C(=O)O; βAla = NCCC(=O)O
Quick list: TGI per entry.

compound=CCO/C(O)=c1/s/c(=C2/SC(=S)N(c3ccc(C)cc3)C2=O)n(-c2ccccc2)c1=N value_measured="> 100 µM"
compound="[N-]=[N+]=NC1C(Cl)C(=O)NC(=O)N1[C@H]1C[C@H](O)[C@@H](CO)O1 (some centres undefined)" value_measured="> 100 µM"
compound=CCN(CC)C(=O)c1cccc2c(OC)ccc(OC)c12 value_measured="> 100 µM"
compound=O=C(Nc1ccc(Nc2ccc3c(c2)C(=O)c2ccccc2C3=O)c2c1C(=O)c1ccccc1C2=O)c1ccccc1 value_measured="> 100 µM"
compound="CCC(C)[C@@H]1NC(=O)[C@@H]2CCCN2C(=O)C(CC(O)CCl)OC(=O)CCNC(=O)[C@H](C)N(C)C(=O)[C@H](C(C)C)N(C)C1=O (some centres undefined) (cyclo([Ile(3ξ)][NMeV][NMeA][βAla][Pentanoyl(2-O,4-OH,5-Cl)]P))" value_measured="> 100 µM"
compound=[O-]c1ccccc1C=NCCN=Cc1ccccc1[O-].[O]=[U+2]=[O] value_measured="> 100 µM"
compound=CCOC(=O)CCCN value_measured="> 100 µM"
compound="O=C1CC(Nc2ccccc2)c2c(Cl)sc(Cl)c21 (centres undefined)" value_measured="> 100 µM"

Fill in reported TGI for this entry: COc1cc(/C=C2\CC3C4CC=C5C[C@@H](O)CC[C@]5(C)C4CC[C@]3(C)\C2=N\O)cc(OC)c1OC (some centres undefined)
> 100 µM

Supply reported TGI belonging to this compound: CCN(CC)CCN1C(=O)C2C3C(C)=CC(OC(C)=O)(CC3C)C2C1=O (centres undefined)
> 100 µM

Query TGI for `CN1CCN(c2n[nH]c(=O)c3c2nnn3Cc2ccccc2)CC1`
> 100 µM

// Input: `O=[N+]([O-])C(/C(Cl)=C(/Cl)N1CCOCC1)=C1\Nc2ccccc2O1` . Output its TGI only.
> 100 µM

Specify TGI for `N#Cc1nc2cc(Cl)c(Cl)cc2nc1-c1ccc(Cl)cc1` and stop.
> 100 µM

---

System: HCT-116 colon
Assay: NCI tumour cell line growth inhibition, 48 h
Measured GI50, listed per entry for reference.

molecule=CCN(Cc1ccccc1)c1ccc(/C=C2\COc3ccccc3C2=O)cc1 value_measured="270 µM"
molecule=COCCn1c(Nc2ccc(C(=O)NO)cc2)nc2ccccc21 value_measured="2.11 µM"
molecule=CC(=O)Nc1ccc(CC[C@H]2CCC/C=C/[C@@H]3C[C@H](O)C[C@H]3[C@H](O)/C=C/C(=O)O2)cc1 value_measured="0.184 µM"

Now look at this one.
In one line, give reported GI50 of the entry `Cc1cc2c(cc1Cl)SC(=Nc1ccc(Cl)cc1)N(S(=O)(=O)c1ccc(Br)s1)S2(=O)=O` .
14.7 µM
